Each entry below carries its recorded EC50, CreLuc assay, 100% hP.
Molecular target: T1, human GIP receptor (human, UniProt P48546 22-466)
T1 sequence (looked up): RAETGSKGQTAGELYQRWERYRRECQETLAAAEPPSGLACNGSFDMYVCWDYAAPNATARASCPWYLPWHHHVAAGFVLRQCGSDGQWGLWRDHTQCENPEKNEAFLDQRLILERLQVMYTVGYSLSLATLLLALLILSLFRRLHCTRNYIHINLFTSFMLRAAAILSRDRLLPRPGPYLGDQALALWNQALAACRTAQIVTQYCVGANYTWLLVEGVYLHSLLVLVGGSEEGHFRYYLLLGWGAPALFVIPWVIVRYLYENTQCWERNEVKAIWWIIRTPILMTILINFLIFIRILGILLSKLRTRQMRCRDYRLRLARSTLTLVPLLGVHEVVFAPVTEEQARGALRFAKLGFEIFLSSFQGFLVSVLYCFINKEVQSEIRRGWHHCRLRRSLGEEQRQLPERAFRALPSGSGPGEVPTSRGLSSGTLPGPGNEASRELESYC
Test: cell-based or functional assay
Starred links: 1 amine or outer side, 2 acyl side, 3 side chain; linkers in the order of their positions; H or OH if unused. Non-standard residues stand in square brackets, D forms with d. Groups on a side chain read outwards from the residue. No end group written: not given here. *: point of attachment. C20 diacid = O=C(O)CCCCCCCCCCCCCCCCCCC(=O)*; C18 diacid = O=C(O)CCCCCCCCCCCCCCCCC(=O)*; γGlu = O=C(O)[C@H](CCC(=O)[*:2])N[*:1]; εLys = N[C@@H](CCCCN[*:1])C(=O)[*:2]; Aib = CC(C)(N)C(=O)O
Provide the reading as a plain figure in nM.

{"columns": ["binder", "EC50, CreLuc assay, 100% hP [nM]"],
 "data": [
  ["YXEGTFTSDYSIXLEKQAQXAFVEWLIKGGPSSGVSXRHYYNWLTRQRY (Aib at 2, 13, 20, 37; K28 side chain: C20DA-gGlu-gGlu-gGlu-gGlu-gGlu-gGlu-eLys; C-terminal NH2) [Compound 38]", 0.7],
  ["YXEGTFTSDYSIXLEKQAQXAFVQWLIKGGPSSGVSLRHYYNWLTRQRY (Aib at 2, 13, 20; K28 side chain: C20DA-gGlu-gGlu-gGlu-gGlu-gGlu-gGlu-eLys; C-terminal NH2) [Compound 47]", 0.73],
  ["YXEGTFTSDYSIXLEKQAQXAFVEWLIKGGPSSGASXRHYXNRXTRQRY (Aib at 2, 13, 20, 37, 41, 44; K28 side chain: C20DA-gGlu-gGlu-gGlu-gGlu-gGlu-gGlu-eLys; C-terminal NH2) [Compound 4]", 1.66],
  ["Y[Aib]EGTFTSDYSI[Aib]LEKQAQ[Aib]AFVQWLIK([εLys-γGlu-γGlu-γGlu-γGlu-γGlu-C18 diacid])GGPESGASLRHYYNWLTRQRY-NH2 (also: TFA salt) [Compound 60]", 0.35]
]}

Turning now to a further record.
q: # input binder: Y[Aib]EGTFTSDYSI[Aib]LEKQAQ[Aib]EFVQWLIK([εLys-γGlu-γGlu-γGlu-γGlu-γGlu-γGlu-γGlu-C20 diacid])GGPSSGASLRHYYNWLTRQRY-NH2 (also: TFA salt) [Compound 43] ; wanted: its EC50, CreLuc assay, 100% hP
a: 1.97
